Where do these numbers come from? They come from ChEMBL document CHEMBL1136363.

- target.entity: Amine oxidase [flavin-containing] A (Homo sapiens)
- Sequence (P21397 whole entry): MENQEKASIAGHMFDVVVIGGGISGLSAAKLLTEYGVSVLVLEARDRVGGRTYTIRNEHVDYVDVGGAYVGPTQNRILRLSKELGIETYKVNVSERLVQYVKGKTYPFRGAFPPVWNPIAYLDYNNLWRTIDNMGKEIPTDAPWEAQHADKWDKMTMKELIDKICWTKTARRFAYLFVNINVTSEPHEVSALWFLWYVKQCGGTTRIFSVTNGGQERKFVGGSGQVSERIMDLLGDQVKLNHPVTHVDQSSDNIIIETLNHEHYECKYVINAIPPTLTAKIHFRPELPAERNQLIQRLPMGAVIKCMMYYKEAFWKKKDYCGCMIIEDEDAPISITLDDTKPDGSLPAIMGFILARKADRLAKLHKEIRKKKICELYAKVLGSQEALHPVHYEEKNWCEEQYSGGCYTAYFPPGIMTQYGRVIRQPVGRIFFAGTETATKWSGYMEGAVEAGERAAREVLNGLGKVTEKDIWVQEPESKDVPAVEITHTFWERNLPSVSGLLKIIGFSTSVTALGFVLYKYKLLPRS
pKi: −log10 of the molar value.
measurement.type: pKi

IN: Given Cc1cc2c(nn1)-c1cc(OCCCC(F)(F)F)ccc1C2=O , state its recorded pKi.
OUT: ~4.00
